# Target under test: GalNAc3S(b1-4)GlcNAc3S
# Assay method text: glycan array binding signal (z-score within array); higher = stronger binding
# Cond: glycan notation: IUPAC condensed, linker removed
Many of the other results were omitted from the sample, so the strongest signals are more common in it than they were.
Each entry gets No if its glycan array binding signal (z-score) stays under 0.07, and Yes if its glycan array binding signal (z-score) is 0.07 or above.

# Binder, Category label
measured = [
    ("FimA-N2 (Actinomyces oris) (protein) MHHHHHHSSGVDLGTENLYFQSNAWIYDVNVYPKNEAIDVDKTIQAQKLNGYGVGSLIKFPVESTAPTLDAKSFYKYFQLKDTLDERLSEVTATDVSLEGTPLQPTDYKVETKQQTVTVTFTAEGLKKIKAAPGKKVSAVFQGKVTKAGNGAITNRAQVISDTLYAEQPPTPETPPTDPENPPTSDEVISRWGDLSIKKVDTHQQGQTKA", "Yes"),
    ("EfCBM33A (Enterococcus faecalis), Q838S1 (protein) MKKSLLTIVLAFSFVLGGAALAPTVSEAHGYVASPGSRAFFGSSAGGNLNTNVGRAQWEPQSIEAPKNTFITGKLASAGVSGFEPLDEQTATRWHKTNITTGPLDITWNLTAQHRTASWDYYITKNGWNPNQPLDIKNFDKIASIDGKQEVPNKVVKQTINIPTDRKGYHVIYAVWGIGDTVNAFYQAIDVNIQ", "Yes"),
    ("Epa9 (Candida glabrata), CAGL0A01386g (protein) MGSSHHHHHHSSGLVPRGSHMDITPFAHYPRPEGCSSPPNAVSVGLHMDLYNYPYLYVKNPRTGFTNDTDSDADGETDGDSAGGIEGRAGQCWNPEYQDPNFPRYGYKKYGSFGSSDHVNGKISWDHNEFKEGCKPIMARLPTAYNYPAKITFSNFTMVLSGYFKPKSTGLYKFEIHADDFILFNFGSKNAFECCNREESIDNFGPYVAYAMWPNEADQELEVYLFEDSYYPIRLFYNNRDYHSKFMVGFYPPNTEEITYDFDGYLYMLDDTGNECKDSIRYKTVCDD", "No"),
    ("SfaEH (Escherichia coli), Q1RDG5 (protein) LLCRNNQTGQVFNSGDTSFRVNVSPVVQYDKSISVLDLSQLVSCQNEDSTGQNYDYLKILKGSGFSPALDTKTYGRLDFTSRPTGYARQLPLQFDLQVTEAFYQYGVWKPFPAKLYLYPAPGVFGKVINNGDLLATLYVNKFSTKGQEAGERNFTWRFYATNDVYIQTGTCRVSSNNVKVDLPSYPGGPVTVPLTVRCDQTQSVSYTLSGPVTGSGNTVFANTAASGSGGVGIQLSDNVGPVPAGQPRSLGQVGSSPVSLGLKASYALTGQASPTPGAVQSVINVTFSYN", "Yes"),
    ("Epa1to9 (Candida glabrata) (protein) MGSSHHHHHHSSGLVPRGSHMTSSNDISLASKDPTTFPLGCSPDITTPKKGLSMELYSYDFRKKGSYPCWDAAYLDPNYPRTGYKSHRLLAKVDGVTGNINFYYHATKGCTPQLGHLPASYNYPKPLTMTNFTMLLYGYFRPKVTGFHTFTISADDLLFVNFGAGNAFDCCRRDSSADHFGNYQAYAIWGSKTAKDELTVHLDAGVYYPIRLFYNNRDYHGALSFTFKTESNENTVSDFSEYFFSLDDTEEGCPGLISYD", "No"),
    ("Pbx2CASH domain (Cryptococcus neoformans) (protein) GIPGPNRLYRLSGPIIFTAADQEIATYGYPTGSERAVLRVEGRNTATAIQGDCRRCARVSVKNLVVDGNRKKLGRMRDFQLATGLVVLGGNEGQSIQNSWIKNPRGFTAIHIREGDKLQCSGARVEKNEIGPVGEEYDPEKDGDDPEMSPLGRPLADGVSIACRDSFIRDNTFRDNTDAAIVVYCSPGTLIHA", "No"),
]
